# tested_target: T1, D2
# T1 chain: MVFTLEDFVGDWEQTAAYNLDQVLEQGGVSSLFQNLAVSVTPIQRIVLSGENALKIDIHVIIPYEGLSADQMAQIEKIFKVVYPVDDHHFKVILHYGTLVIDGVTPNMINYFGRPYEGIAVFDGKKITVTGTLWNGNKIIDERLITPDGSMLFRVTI
# applied_conditions: modification not given
quantity_kind: Kd (nM)

binder	result_value
NVSGWRLFKKISN [NLpep78]	10.2
